Form field: activity at 10 µM (one value per entry).
- System: UACC-62
- experimental.details: NCI 60 cell panel SRB screen
- Format: cell-based
- condition: Homo sapiens, UACC-62, read-out: percent cell growth promotion
Return type: number; implicit unit %.

Can you look up activity at 10 µM on UACC-62 for "CCOC(=O)N1CCN(c2nncc3ccccc23)CC1" ? 103

Form entry - test system: UACC-62; read-out: activity at 10 µM; molecule: "Cc1nnc(Nc2ccc(NC(=O)Nc3ccc(Cl)cc3)cc2)c2ccccc12" -34.4

Notebook entry, UACC-62 assay: activity at 10 µM of "Cc1nnc(N2CCN(c3ccccn3)CC2)c2ccccc12" = ? 101

----------
Below, each of the compounds is paired with its reported CC50 value.
- Tested on: OVCAR-8
- experimental.details: NCI 60 cell panel SRB screen
- Assay type: cell-based
- condition: Homo sapiens; OVCAR-8, 5 log dose, 48 h; read-out: LC50 (the source's name)

Examples with their reported CC50 follow.
> print(dat)
                                   compound  parameter  test.result
1  COc1cccc(NCc2nnc(Nc3ccc(Cl)cc3)c3ccccc23)c1 [Compound 16d]       CC50      > 25 µM
2  Clc1ccc(Nc2nnc(CNc3ccccc3)c3ccccc23)cc1 [Compound 16a]       CC50      > 25 µM
3  Clc1ccc(Nc2nnc(COc3ccccc3)c3ccccc23)cc1 [Compound 17a]       CC50      > 25 µM
4  O=C(Nc1ccc(Cl)cc1)Nc1ccc(Oc2nncc3ccccc23)cc1       CC50     > 100 µM
5  O=C(Nc1ccc(Cl)cc1)Nc1ccc(Nc2nncc3ccccc23)cc1       CC50     > 100 µM
6  O=C(Nc1ccccc1)Nc1ccc(Oc2nnc(Cl)c3ccccc23)cc1 [Compound 13a]       CC50      16.4 µM

Attention now turns to another entry.
Value lookup for CC50; key = "Cc1nnc(Nc2ccc(NC(=O)Nc3ccc(Cl)cc3)cc2)c2ccccc12" 47.4 µM

----------
- Tested on: M14
- experimental.details: NCI 60 cell panel SRB screen
- Assay type: cell-based
- condition: Homo sapiens; M14, 5 log dose, 48 h; read-out: LC50 (the source's name)
parameter: CC50 (µM)
Answer with a number only, understood to be in µM.

Example entries begin here.
> print(dat)
                                   molecule  tested.system  test.result
1  Clc1ccc(Nc2nnc(COc3ccccc3)c3ccccc23)cc1 [Compound 17a]            M14         15.2
2  O=C(Nc1ccc(Cl)cc1)Nc1ccc(Nc2nncc3ccccc23)cc1            M14         40.7
3  O=C(Nc1ccc(Cl)cc1)Nc1ccc(Oc2nncc3ccccc23)cc1            M14         8.93

Recorded CC50 of COc1cccc(NCc2nnc(Nc3ccc(Cl)cc3)c3ccccc23)c1 [Compound 16d] , please. 12.9

Query: CC50; subject: Clc1ccc(Nc2nnc(CNc3ccccc3)c3ccccc23)cc1 [Compound 16a] 20.6

CC50 for "Cc1nnc(Nc2ccc(NC(=O)Nc3ccc(Cl)cc3)cc2)c2ccccc12" ? 7.27

----------
- Tested on: HL-60(TB)
- experimental.details: NCI 60 cell panel SRB screen
- Type: cell-based
- condition: Homo sapiens, 5 log dose
parameter: IC (TGI) (µM)
Provide only the numeric value, understood in µM.

Would you kindly share the measured IC (TGI) for Clc1ccc(Nc2nnc(CNc3ccccc3)c3ccccc23)cc1 [Compound 16a] ? 13

I would be grateful if you could share the reported IC (TGI) for Clc1ccc(Nc2nnc(COc3ccccc3)c3ccccc23)cc1 [Compound 17a] . 11.9

----------
Reported activity at 10 µM by item:
- Tested on: SR
- experimental.details: NCI 60 cell panel SRB screen
- Format: cell-based
- condition: Homo sapiens, single dose 10 μM, read-out: percent cell growth promotion
Write the answer as a number in %, unit excluded.

Please report the recorded activity at 10 µM for "Cc1nnc(N2CCN(c3ccccc3)CC2)c2ccccc12" . 107

For the compound shown here, Clc1ccc(Nc2nnc(CNc3ccccc3)c3ccccc23)cc1 [Compound 16a] , give the reported activity at 10 µM. -9.19

----------
- tested.system: VEGFR-2 tyrosine kinase (Homo sapiens)
- Construct: purchased BPS Bioscience 40301
- Sequence (P35968 20-1356): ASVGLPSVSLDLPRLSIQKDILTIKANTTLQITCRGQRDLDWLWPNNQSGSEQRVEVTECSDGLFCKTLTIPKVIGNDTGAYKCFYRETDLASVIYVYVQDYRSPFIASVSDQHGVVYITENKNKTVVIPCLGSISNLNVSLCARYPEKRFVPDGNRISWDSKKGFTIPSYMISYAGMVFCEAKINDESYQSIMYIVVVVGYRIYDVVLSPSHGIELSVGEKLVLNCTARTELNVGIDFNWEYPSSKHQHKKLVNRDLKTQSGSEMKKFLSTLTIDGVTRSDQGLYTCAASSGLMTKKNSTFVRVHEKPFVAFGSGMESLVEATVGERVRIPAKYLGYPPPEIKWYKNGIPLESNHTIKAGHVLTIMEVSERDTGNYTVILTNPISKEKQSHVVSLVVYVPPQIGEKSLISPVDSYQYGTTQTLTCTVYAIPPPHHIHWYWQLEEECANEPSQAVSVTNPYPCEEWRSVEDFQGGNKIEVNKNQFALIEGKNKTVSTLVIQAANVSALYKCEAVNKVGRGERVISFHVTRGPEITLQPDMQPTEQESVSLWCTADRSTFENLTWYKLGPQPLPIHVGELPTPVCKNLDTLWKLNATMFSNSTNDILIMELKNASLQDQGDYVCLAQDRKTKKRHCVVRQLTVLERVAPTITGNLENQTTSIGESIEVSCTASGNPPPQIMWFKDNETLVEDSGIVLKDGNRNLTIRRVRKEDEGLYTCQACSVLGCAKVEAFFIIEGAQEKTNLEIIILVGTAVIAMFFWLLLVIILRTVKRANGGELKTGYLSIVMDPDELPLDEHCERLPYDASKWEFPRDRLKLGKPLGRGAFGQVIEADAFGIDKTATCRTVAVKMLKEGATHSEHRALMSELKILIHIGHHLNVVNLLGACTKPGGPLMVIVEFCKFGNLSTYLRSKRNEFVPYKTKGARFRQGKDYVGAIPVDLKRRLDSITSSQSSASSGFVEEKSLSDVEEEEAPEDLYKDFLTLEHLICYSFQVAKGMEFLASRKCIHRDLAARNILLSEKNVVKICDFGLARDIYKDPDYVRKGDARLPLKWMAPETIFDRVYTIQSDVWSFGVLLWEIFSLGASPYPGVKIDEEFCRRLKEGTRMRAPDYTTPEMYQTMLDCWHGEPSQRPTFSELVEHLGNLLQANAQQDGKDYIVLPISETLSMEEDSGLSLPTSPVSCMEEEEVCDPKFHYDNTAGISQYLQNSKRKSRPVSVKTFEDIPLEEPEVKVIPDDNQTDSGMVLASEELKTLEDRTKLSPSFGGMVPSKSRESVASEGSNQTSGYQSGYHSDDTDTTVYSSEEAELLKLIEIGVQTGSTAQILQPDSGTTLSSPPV
- experimental.details: In vitro VEGFR-2 tyrosine kinase assay (BPS Bioscience)
- Type: biochemical
- condition: read-out: VEGFR-2 % inhibition; 10 μM concentration
inhibition at 10 µM below 6% gives n; inhibition at 10 µM at or above it gives y.

Solved entries:
> print(dat)
                           molecular.string                           tested.system  answer.label
1  O=C(Nc1ccc(Oc2nncc3ccccc23)cc1)Nc1ccc(Cl)c(C(F)(F)F)c1  VEGFR-2 tyrosine kinase (Homo sapiens)             y
2  O=C(Nc1ccccc1)Nc1ccc(Oc2nncc3ccccc23)cc1  VEGFR-2 tyrosine kinase (Homo sapiens)             n
3  O=C(Nc1ccc(Cl)cc1)Nc1ccc(Oc2nncc3ccccc23)cc1  VEGFR-2 tyrosine kinase (Homo sapiens)             y

Read the next record carefully.
Determine whether this molecule has inhibition at 10 µM no lower than 6%: "O=C(Nc1ccc(Cl)cc1)Nc1ccc(Nc2nncc3ccccc23)cc1" y

----------
- Test system: UACC-257
- experimental.details: NCI 60 cell panel SRB screen
- Format: cell-based
- condition: Homo sapiens, UACC-257, read-out: TGI
Below, each entry is listed alongside its reported IC (TGI).

> print(dat)
                                   molecule  parameter  test.result
1  O=C(Nc1ccccc1)Nc1ccc(Oc2nnc(Cl)c3ccccc23)cc1 [Compound 13a]   IC (TGI)      > 25 µM
2  Cc1nnc(Nc2ccc(NC(=O)Nc3ccc(Cl)cc3)cc2)c2ccccc12   IC (TGI)       5.3 µM
3  O=C(Nc1ccc(Cl)cc1)Nc1ccc(Oc2nncc3ccccc23)cc1   IC (TGI)      4.04 µM
4  O=C(Nc1ccc(Cl)cc1)Nc1ccc(Nc2nncc3ccccc23)cc1   IC (TGI)      10.8 µM
5  Clc1ccc(Nc2nnc(COc3ccccc3)c3ccccc23)cc1 [Compound 17a]   IC (TGI)      5.82 µM

What IC (TGI) value was documented for this molecule, Clc1ccc(Nc2nnc(CNc3ccccc3)c3ccccc23)cc1 [Compound 16a] ? 6.87 µM

So what's the measured IC (TGI) for this one? COc1cccc(NCc2nnc(Nc3ccc(Cl)cc3)c3ccccc23)c1 [Compound 16d] 5.28 µM

----------
- System: SNB-19
- experimental.details: NCI 60 cell panel SRB screen
- Format: cell-based
- condition: Homo sapiens; SNB-19, 5 log dose
parameter: IC (TGI)

> print(dat)
                                   molecule  test.result
1  Cc1nnc(Nc2ccc(NC(=O)Nc3ccc(Cl)cc3)cc2)c2ccccc12      8.72 µM
2  O=C(Nc1ccc(Cl)cc1)Nc1ccc(Oc2nncc3ccccc23)cc1      4.79 µM
3  COc1cccc(NCc2nnc(Nc3ccc(Cl)cc3)c3ccccc23)c1 [Compound 16d]        13 µM
4  Clc1ccc(Nc2nnc(COc3ccccc3)c3ccccc23)cc1 [Compound 17a]        12 µM
5  O=C(Nc1ccccc1)Nc1ccc(Oc2nnc(Cl)c3ccccc23)cc1 [Compound 13a]      8.46 µM
6  O=C(Nc1ccc(Cl)cc1)Nc1ccc(Nc2nncc3ccccc23)cc1        19 µM

Please examine the following record next.
# input molecule: Clc1ccc(Nc2nnc(CNc3ccccc3)c3ccccc23)cc1 [Compound 16a] ; wanted: its IC (TGI) 22.7 µM

----------
Each record here notes measured CC50.
- Test system: UACC-257
- experimental.details: NCI 60 cell panel SRB screen
- Assay type: cell-based
- condition: Homo sapiens; UACC-257, 5 log dose, 48 h; read-out: LC50 (the source's name)
Numeric only. Scale: µM

For orientation, consider the following solved cases.
> print(dat)
                                   compound  test.result
1  Clc1ccc(Nc2nnc(CNc3ccccc3)c3ccccc23)cc1 [Compound 16a]         17.2
2  O=C(Nc1ccc(Cl)cc1)Nc1ccc(Nc2nncc3ccccc23)cc1 [Compound 6b]         33.5
3  Clc1ccc(Nc2nnc(COc3ccccc3)c3ccccc23)cc1 [Compound 17a]         13.4
4  O=C(Nc1ccc(Cl)cc1)Nc1ccc(Oc2nncc3ccccc23)cc1 [Compound 7b]         12.9

Pending compound:
Given COc1cccc(NCc2nnc(Nc3ccc(Cl)cc3)c3ccccc23)c1 [Compound 16d] , state its recorded CC50. 11.6

----------
// activity at 10 µM lookup, one value per entry
- System: RXF 393
- experimental.details: NCI 60 cell panel SRB screen
- Type: cell-based
- condition: Homo sapiens; RXF 393, single dose 10 μM; read-out: percent cell growth promotion
Please reply with the bare figure in % and do not write the unit itself.

> print(dat)
                                   compound  tested.system          parameter  test.result
1  Clc1ccc(Nc2nnc(COc3ccccc3)c3ccccc23)cc1 [Compound 17a]        RXF 393  activity at 10 µM        -5.93

Can you share its activity at 10 µM? I mean this compound: O=C(Nc1ccccc1)Nc1ccc(Oc2nnc(Cl)c3ccccc23)cc1 [Compound 13a] -3.63

// activity at 10 µM lookup, key: Cc1nnc(Nc2ccc(NC(=O)Nc3ccc(Cl)cc3)cc2)c2ccccc12 [Compound 6e] -39.7

Please report the recorded activity at 10 µM for Clc1ccc(Nc2nnc(CNc3ccccc3)c3ccccc23)cc1 [Compound 16a] . 25.7
